Each entry below lists one item and its recorded Mortality value.
# Tested on: ICR mice
# Type: in vivo
# Test conditions: p.o., 15 g/kg
Reported metric: Mortality

molecule="CC1(C)O[C@@H]2C[C@H]3[C@@H]4C[C@H](F)C5=CC(=NO)C=C[C@]5(C)[C@@]4(F)[C@@H](O)C[C@]3(C)[C@]2(/C(CO)=N/O)O1 [Example 8]" observed_result=1/12
molecule="CCON=C1C=C[C@@]2(C)C(=C1)[C@@H](C)C[C@@H]1[C@@H]2[C@@H](O)C[C@@]2(C)[C@H]1CC[C@]2(O)/C(CO)=N/OCC [Example 9]" observed_result=2/12
molecule="CCC(=O)OC/C(=N\\O)[C@@]1(O)[C@H](O)C[C@H]2[C@@H]3CCC4=CC(=NO)C=C[C@]4(C)[C@@]3(F)[C@@H](O)C[C@@]21C [Example 14]" observed_result=3/12

* * *

# Tested on: ICR mice
# Assay type: in vivo
# Test conditions: p.o., 7.68 g/kg
# maps each entry to its Mortality
Reported metric: Mortality

structure_smiles=CCON=C1C=C[C@@]2(C)C(=C1)CC[C@@H]1[C@@H]2[C@@H](O)C[C@@]2(C)[C@H]1C[C@@H](C)[C@]2(O)/C(COC(C)=O)=N/OCC observed_result=0/12
structure_smiles=CC(=O)OC/C(=N\O)[C@@]1(O)CC[C@H]2[C@@H]3CCC4=CC(=NO)CC[C@]4(C)[C@H]3[C@@H](O)C[C@@]21C observed_result=0/12
structure_smiles=CC1(C)O[C@@H]2C[C@H]3[C@@H]4C[C@H](F)C5=CC(=NO)C=C[C@]5(C)[C@@]4(F)[C@@H](O)C[C@]3(C)[C@]2(/C(CO)=N/O)O1 observed_result=0/12
structure_smiles=CCC(=O)OC/C(=N\O)[C@@]1(O)[C@H](O)C[C@H]2[C@@H]3CCC4=CC(=NO)C=C[C@]4(C)[C@@]3(F)[C@@H](O)C[C@@]21C observed_result=0/12

* * *

# Tested on: rat paw swelling induced by monosodium urate (MSU)
# Method description: rat paw swelling model induced by monosodium urate (MSU)
# Assay type: in vivo
# Test conditions: SD rats, 90 mg/kg by gavage once a day for seven days, 1 h after onset of inflammation
Each item that follows carries a reported Swelling value.
Reported metric: Swelling value (mL)

compound="CC1(C)O[C@@H]2C[C@H]3[C@@H]4C[C@H](F)C5=CC(=NO)C=C[C@]5(C)[C@@]4(F)[C@@H](O)C[C@]3(C)[C@]2(/C(CO)=N/O)O1 [Example 8]" observed_result=0.33
compound="CC(=O)OC/C(=N\\O)[C@@]1(O)CC[C@H]2[C@@H]3CCC4=CC(=NO)CC[C@]4(C)[C@H]3[C@@H](O)C[C@@]21C [Example 5]" observed_result=0.72
compound="C[C@H]1C[C@@H]2[C@H]([C@@H](O)C[C@@]3(C)[C@H]2CC[C@]3(O)/C(CO)=N/O)[C@@]2(C)C=CC(=NO)C=C12 [Example 1]" observed_result=0.01
compound="C[C@@H]1C[C@H]2[C@@H]3CCC4=CC(=NO)C=C[C@]4(C)[C@H]3[C@@H](O)C[C@]2(C)[C@H]1/C(CO)=N/O [Example 10]" observed_result=1.24
compound="C[C@H]1C[C@@H]2[C@H]([C@@H](O)C[C@@]3(C)[C@H]2CC[C@]3(O)C(=O)CO)[C@@]2(C)C=CC(=O)C=C12 [Methylprednisolone, methylprednisolone, reference compound]" observed_result=1.87
compound="CCCCC(=O)O[C@]1(/C(CO)=N/O)CC[C@H]2[C@@H]3C[C@H](C)C4=CC(=NO)C=C[C@]4(C)[C@H]3[C@@H](O)C[C@@]21C [Example 17]" observed_result=0.14
compound="C[C@]12C=CC(=NO)C=C1CC[C@@H]1[C@@H]2[C@@H](O)C[C@@]2(C)[C@H]1CC[C@]2(O)/C(CO)=N/O [Example 3]" observed_result=0.77
compound="CC(=O)OC/C(=N\\O)[C@@]1(O)CC[C@H]2[C@@H]3C[C@H](C)C4=CC(=NO)C=C[C@]4(C)[C@H]3[C@@H](O)C[C@@]21C [Example 2]" observed_result=0.04
compound="CCC(=O)OC/C(=N\\O)[C@@]1(O)[C@H](O)C[C@H]2[C@@H]3CCC4=CC(=NO)C=C[C@]4(C)[C@@]3(F)[C@@H](O)C[C@@]21C [Example 14]" observed_result=0.56
compound="CCON=C1C=C[C@@]2(C)C(=C1)CC[C@@H]1[C@@H]2[C@@H](O)C[C@@]2(C)[C@H]1C[C@@H](C)[C@]2(O)/C(COC(C)=O)=N/OCC [Example 11]" observed_result=1.42
